EXPERIMENTAL SYSTEM: T1, EGFRvIII amino acid residues 15 to 37 with Asp23 to Ala mutation (human)
T1 construct: mutation is already in the entry
T1 peptide: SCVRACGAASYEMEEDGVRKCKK
ASSAY: yeast display flow cytometry, Myc-normalized;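 further: Anti-EGFRvIII monoclonal antibodies tested by flow cytometry on yeast displaying alanine-substituted fragments, two-color indirect fluorescence with anti-Myc signal tracking fusion protein expression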
MEASUREMENT TYPE: % of binding vs wild-type fragment 15-37
Dear colleague, please send the value followed by its unit.

| BINDER | MEASURED VALUE |
| --- | --- |
| F265-9C9 (antibody, V domains shown, Mouse hybridoma mAb) VH: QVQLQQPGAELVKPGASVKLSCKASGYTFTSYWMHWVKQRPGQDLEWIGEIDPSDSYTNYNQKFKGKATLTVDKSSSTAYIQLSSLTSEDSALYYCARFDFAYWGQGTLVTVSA VL: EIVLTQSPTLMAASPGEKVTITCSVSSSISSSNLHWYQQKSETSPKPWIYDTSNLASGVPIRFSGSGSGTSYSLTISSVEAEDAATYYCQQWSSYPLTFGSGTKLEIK | 63.2% |
| F263-4E11 (antibody, V domains shown, Mouse hybridoma mAb) VH: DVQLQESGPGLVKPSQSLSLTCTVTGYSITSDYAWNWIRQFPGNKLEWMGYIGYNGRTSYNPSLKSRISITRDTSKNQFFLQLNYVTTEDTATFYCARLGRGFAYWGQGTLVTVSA VL: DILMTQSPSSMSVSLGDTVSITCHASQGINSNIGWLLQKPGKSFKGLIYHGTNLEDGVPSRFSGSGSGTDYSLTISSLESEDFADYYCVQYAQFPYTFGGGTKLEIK | 58.4% |
| F263-4B3 (antibody, V domains shown, Mouse hybridoma mAb) VH: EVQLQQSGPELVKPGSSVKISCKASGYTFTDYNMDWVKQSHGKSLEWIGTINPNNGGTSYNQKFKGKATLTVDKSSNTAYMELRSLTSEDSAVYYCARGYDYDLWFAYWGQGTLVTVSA VL: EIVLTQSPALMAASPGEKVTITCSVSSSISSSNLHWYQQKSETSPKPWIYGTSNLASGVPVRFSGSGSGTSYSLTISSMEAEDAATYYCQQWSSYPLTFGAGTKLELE | 94.1% |

Let us move to another entry and its % of binding vs wild-type fragment 15-37.
Q: Given F263-5D8 (antibody, V domains shown, Mouse hybridoma mAb) VH: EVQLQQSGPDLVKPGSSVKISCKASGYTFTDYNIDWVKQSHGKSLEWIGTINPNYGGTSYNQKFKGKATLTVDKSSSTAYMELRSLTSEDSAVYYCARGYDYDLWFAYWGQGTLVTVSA VL: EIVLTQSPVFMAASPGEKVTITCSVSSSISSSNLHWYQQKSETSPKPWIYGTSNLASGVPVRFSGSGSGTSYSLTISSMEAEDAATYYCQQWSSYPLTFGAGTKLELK , state its recorded % of binding vs wild-type fragment 15-37.
Ans: 106%
